substrate: CC(C)CC(=O)C(=O)O; experiment: purified protein; format: biochemical, Saccharomyces cerevisiae; conditions: forward reaction, 100 mM Glu, 50 μM PLP, 100 mM NH4Cl, 0.25 mM NADH, 200 mM potassium phosphate pH 8.0, 30°C, apparent
Task for the reader: assign each of the following proteins its reported kcat/Km.
Answer with a number only, understood to be in M⁻¹ s⁻¹.

// query May I ask what kcat/Km has been recorded for Bat2^WT (Saccharomyces cerevisiae S288C; G316S) (protein, N-terminal His-tag (pET53-dest, tag not reported cut); E. coli BL21(DE3); dimer) MTLAPLDASKVKITTTQHASKPKPNSELVFGKSFTDHMLTAEWTAEKGWGTPEIKPYQNLSLDPSAVVFHYAFELFEGMKAYRTVDNKITMFRPDMNMKRMNKSAQRICLPTFDPEELITLIGKLIQQDKCLVPEGKGYSLYIRPTLIGTTAGLGVSTPDRALLYVICCPVGPYYKTGFKAVRLEATDYATRAWPGGCGDKKLGANYAPCVLPQLQAASRGYQQNLWLFGPNNNITEVGTMNAFFVFKDSKTGKKELVTAPLDGTILEGVTRDSILNLAKERLEPSEWTISERYFTIGEVTERSKNGELLEAFGSSTAAIVSPIKEIGWKGEQINIPLLPGEQTGPLAKEVAQWINGIQYGETEHGNWSRVVTDLN ?
// result 7960

// query Request the reported kcat/Km associated with Bat1ΔN16^WT (Saccharomyces cerevisiae S288C; G333S) (protein, first 16 residues (mitochondrial-targeting signal) removed; N-terminal His-tag (pET53-dest, tag not reported cut); E. coli BL21(DE3); dimer) LATGAPLDASKLKITRNPNPSKPRPNEELVFGQTFTDHMLTIPWSAKEGWGTPHIKPYGNLSLDPSACVFHYAFELFEGLKAYRTPQNTITMFRPDKNMARMNKSAARICLPTFESEELIKLTGKLIEQDKHLVPQGNGYSLYIRPTMIGTSKGLGVGTPSEALLYVITSPVGPYYKTGFKAVRLEATDYATRAWPGGVGDKKLGANYAPCILPQLQAAKRGYQQNLWLFGPEKNITEVGTMNVFFVFLNKVTGKKELVTAPLDGTILEGVTRDSVLTLARDKLDPQEWDINERYYTITEVATRAKQGELLEAFGSSTAAVVSPIKEIGWNNEDIHVPLLPGEQCGALTKQVAQWIADIQYGRVNYGNWSKTVADLN
// result 3150

// query Tell me the measured kcat/Km of Bat1ΔN16^WT (Saccharomyces cerevisiae S288C) (protein, first 16 residues (mitochondrial-targeting signal) removed; N-terminal His-tag (pET53-dest, tag not reported cut); E. coli BL21(DE3); dimer) LATGAPLDASKLKITRNPNPSKPRPNEELVFGQTFTDHMLTIPWSAKEGWGTPHIKPYGNLSLDPSACVFHYAFELFEGLKAYRTPQNTITMFRPDKNMARMNKSAARICLPTFESEELIKLTGKLIEQDKHLVPQGNGYSLYIRPTMIGTSKGLGVGTPSEALLYVITSPVGPYYKTGFKAVRLEATDYATRAWPGGVGDKKLGANYAPCILPQLQAAKRGYQQNLWLFGPEKNITEVGTMNVFFVFLNKVTGKKELVTAPLDGTILEGVTRDSVLTLARDKLDPQEWDINERYYTITEVATRAKQGELLEAFGSGTAAVVSPIKEIGWNNEDIHVPLLPGEQCGALTKQVAQWIADIQYGRVNYGNWSKTVADLN , please.
// result 47700
